TESTED ON: T1, HLA-A*02:01 (human)
T1 construct: captured on streptavidin plates; also called peptide-receptive MHC molecules
EXPERIMENT SUMMARY: UV peptide exchange ELISA (anti-b2m); yield grade: + >10%, ++ >20%, +++ >50, ++++ >75%
Source text: Candidate peptides for T cell based therapies according to the present invention were further tested for their MHC binding capacity (affinity). The individual peptide-MHC complexes were produced by UV-ligand exchange, where a UV-sensitive peptide is cleaved upon UV-irradiation, and exchanged with the peptide of interest as analyzed. Only peptide candidates that can effectively bind and stabilize the peptide-receptive MHC molecules prevent dissociation of the MHC complexes. […]
Reported peptide exchange yield values are given for each entry in this list.
VALUE KIND: peptide exchange yield

> print(dat)
      binder     result
1  ILDDSALYL      > 75%
2  VLDTLTKVL  50 to 75%
3  ALDDTVLQV  50 to 75%
4  TTLGGFAKV  20 to 50%
5  KMTQYITEL      > 75%
6  VVDDIVSKL  20 to 50%
7  ILWDTLLRL      > 75%
8  SLKSKVLSV      > 75%
